Target or system: α-amylase from porcine pancreas (Sus scrofa, UniProt P00690)
Construct: A saline suspension of α-amylase from porcine pancreas; purchased Sigma Aldrich (Steinheim, Germany) Lot #SLBN9170V (catalogue number not given); host or cells: porcine pancreas (tissue-derived)
Sequence (P00690 16-511): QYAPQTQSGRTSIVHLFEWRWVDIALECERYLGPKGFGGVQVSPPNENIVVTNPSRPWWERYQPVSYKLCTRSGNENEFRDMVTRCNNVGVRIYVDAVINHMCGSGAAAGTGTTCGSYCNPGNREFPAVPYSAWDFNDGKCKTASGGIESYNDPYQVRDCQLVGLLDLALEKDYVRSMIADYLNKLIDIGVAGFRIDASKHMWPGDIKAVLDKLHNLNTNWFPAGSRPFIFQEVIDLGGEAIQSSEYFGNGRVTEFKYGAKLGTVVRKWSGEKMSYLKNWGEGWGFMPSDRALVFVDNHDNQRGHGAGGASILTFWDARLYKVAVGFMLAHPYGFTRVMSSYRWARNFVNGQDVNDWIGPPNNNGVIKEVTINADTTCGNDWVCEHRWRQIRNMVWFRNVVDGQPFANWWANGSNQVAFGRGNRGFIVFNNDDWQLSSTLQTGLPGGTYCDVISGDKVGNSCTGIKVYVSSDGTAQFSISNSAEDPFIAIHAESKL
Measurement description: α-amylase enzyme activity assay, GalG2CNP conversion, UV/Vis detection of CNP at 405 nm
Format: biochemical
Settings: Michaelis Menten fit; inhibitor c 12,5 µM
Listed here: items and their measured Kmapp.
The figure you give is taken to be in µM; do not add the unit.

# example entries with known answers
{"Compound": "OC[C@H]1O[C@@H](Oc2cc3c(O)cc(O)cc3[o+]c2-c2cc(O)c(O)c(O)c2)[C@H](O)[C@@H](O)[C@@H]1O [Dpd-glc, delphinidin-3-glucoside]", "Kmapp / µM": 247}
{"Compound": "OC[C@H]1O[C@@H](Oc2cc3c(O)cc(O)cc3[o+]c2-c2ccc(O)c(O)c2)[C@H](O)[C@@H](O)[C@@H]1O [Cyd-glc, cyanidin-3-glucoside]", "Kmapp / µM": 244}
{"Compound": "COc1cc(-c2[o+]c3cc(O)cc(O)c3cc2O[C@@H]2O[C@H](CO)[C@@H](O)[C@H](O)[C@H]2O)ccc1O [Peo-glc, peonidin-3-glucoside]", "Kmapp / µM": 211}

Shifting focus to the compound that follows.
Entry OC[C@H]1O[C@@H](Oc2cc3c(O)cc(O)cc3[o+]c2-c2ccc(O)cc2)[C@H](O)[C@@H](O)[C@@H]1O [Plg-glc, pelargonidin-3-glucoside] : Kmapp on α-amylase from porcine pancreas (Sus scrofa, UniProt P00690) = 235
